tested on: DIV17; assay: qHTS profiling for inhibitors of Plasmodium falciparum proliferation (AID 504749); further: nearly all actives have a fitted effect of over 60% in size; settings: P. falciparum in erythrocytes, SYBR Green DNA, 72 h; series mostly up to 28.7 µM
Results filed as inconclusive are left out. Calls of active or inactive are those of the source. The call rests on the fitted dose curve; in most records, active means well fitted inhibition curve with a large enough effect; inconclusive means small, poorly fitted or top-dose-only effect; inactive means flat fitted curve, though single readings scatter.
Assign a class; possible classes are yes for active, no for inactive

| MOLECULE | ANSWER LABEL |
| --- | --- |
| CC(=O)N(O)CCCCCNC(=O)CCC(=O)N(O)CCCCCNC(=O)CCC(=O)N(O)CCCCCN | no |
| CCn1cc(C(=O)O)c(=O)c2cnc(N3CCCC3)nc21 | no |
| COc1cccc2c1C(=O)c1c(O)c3c(c(O)c1C2=O)C[C@@](O)(C(C)=O)C[C@@H]3O[C@H]1C[C@H](N)[C@H](O)[C@H](C)O1 | yes |
| NC(CS)C(=O)O (configuration not stated) | yes |
| CC(C)(Oc1ccc(Cl)cc1)C(=O)O | no |
| c1ccc(CNCCNCc2ccccc2)cc1 | yes |
| CCOC(=O)n1ccn(C)c1=S | no |
| CN1CCC[C@@H]1c1cccnc1 | no |

Ask: // param item: CCN(CC)C(=O)N1CCN(C)CC1 ; yields the recorded call
Reply: no

Ask: Entry c1ccc(OCc2ccc(CCCN3CCOCC3)cc2)cc1 : call = ?
Reply: yes

Ask: For O=C(Nc1ccc(Cl)c(Cl)c1)C1CC1 , which call appears in the assay record?
Reply: no

Ask: What outcome does the record of this test show for CCCn1c(=O)[nH]c(=O)c2[nH]cnc21 ?
Reply: no
